Assay: Plasma pharmacokinetics after single oral dose in HFrEF patients
Assay type: in vivo, human
Conditions: human, plasma, oral
Result Type: half-life

Q: Data request, read-out half-life, for CN1C(=O)c2c(nn(Cc3ccc(-c4cccc(F)n4)cc3)c2Nc2ccccc2)N2C1=N[C@@H]1CCC[C@@H]12
A: ~1320 min

----------
Test: Plasma pharmacokinetics after single oral dose in HFrEF patients
Type: in vivo, human
Details: human, plasma, po, 90 mg
Result Type: Tmax

Q: # query: Tmax of entry CN1C(=O)c2c(nn(Cc3ccc(-c4cccc(F)n4)cc3)c2Nc2ccccc2)N2C1=N[C@@H]1CCC[C@@H]12
A: 45 to 66 min

The values you see were collected from paper PMC8458252.
